# Assayed target: GST-Rok (full length) (Bacillus subtilis subsp. subtilis str. …, UniProt O34857 1-191)
# Sequence: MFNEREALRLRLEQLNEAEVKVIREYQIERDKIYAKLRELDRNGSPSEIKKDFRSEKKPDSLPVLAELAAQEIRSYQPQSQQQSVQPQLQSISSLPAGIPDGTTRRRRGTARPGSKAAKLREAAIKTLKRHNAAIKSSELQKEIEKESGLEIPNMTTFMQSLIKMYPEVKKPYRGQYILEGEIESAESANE
# Protocol description: protein binding microarray; high values mean tight binding
# Condition: protein: recombinant; tags: GST (pTH5325, pDEST15-Magic modified); dsDNA, one strand shown
The full ranking holds about 33,000 sequences; the median of “e-score” is about -0.037, and the highest 2% start at about 0.34. Only a selection was taken, and the highest values are over-represented in it overall.
// classify: if (binding signal < 0.04 E-score) Satisfied else Not satisfied

[[record]]
sequence_data = "GCGTACTA"
category = "Not satisfied"

[[record]]
sequence_data = "CGGTAGAA"
category = "Not satisfied"

[[record]]
sequence_data = "ATATTCAT"
category = "Not satisfied"

[[record]]
sequence_data = "ACAAATAT"
category = "Not satisfied"

[[record]]
sequence_data = "ATAAATAA"
category = "Not satisfied"

[[record]]
sequence_data = "TGGTAGAA"
category = "Not satisfied"

[[record]]
sequence_data = "GTAGACAA"
category = "Satisfied"

[[record]]
sequence_data = "GTCCGCAA"
category = "Satisfied"

[[record]]
sequence_data = "ACAAATAA"
category = "Not satisfied"

[[record]]
sequence_data = "AATCAATG"
category = "Not satisfied"

[[record]]
sequence_data = "GCGTGAAC"
category = "Satisfied"


---

# Assayed target: GST-Rok (full length) (Bacillus subtilis subsp. subtilis str. …, UniProt O34857 1-191)
# Sequence: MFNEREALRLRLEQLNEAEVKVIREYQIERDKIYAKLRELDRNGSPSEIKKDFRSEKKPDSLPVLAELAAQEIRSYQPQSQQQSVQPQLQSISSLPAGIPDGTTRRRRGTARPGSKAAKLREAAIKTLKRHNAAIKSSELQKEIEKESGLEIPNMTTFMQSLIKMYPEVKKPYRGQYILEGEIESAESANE
# Protocol description: protein binding microarray; Rok is a gene silencer of Bacillus subtilis; high values mean tight binding
# Condition: protein: recombinant; tags: GST (pTH5325, pDEST15-Magic modified); dsDNA, one strand shown
In all, about 33,000 sequences were measured (“e-score”: median about -0.037, highest 2% from about 0.34 on). Only a selection was taken, and the highest values are over-represented in it overall.
Mark Fulfilled for binding signal under 0.3 E-score, Not fulfilled if at or over.

[[record]]
sequence_data = "TGAACCCA"
category = "Fulfilled"

[[record]]
sequence_data = "AACTAGTG"
category = "Not fulfilled"

[[record]]
sequence_data = "AGATGTAC"
category = "Not fulfilled"

[[record]]
sequence_data = "AGACTAAA"
category = "Fulfilled"

[[record]]
sequence_data = "ACATCTAC"
category = "Fulfilled"

[[record]]
sequence_data = "ACGTTGGA"
category = "Fulfilled"

[[record]]
sequence_data = "AGTTAGAT"
category = "Fulfilled"

[[record]]
sequence_data = "GATAGCTA"
category = "Not fulfilled"

[[record]]
sequence_data = "TACTAGGA"
category = "Fulfilled"

[[record]]
sequence_data = "GGGTAGAA"
category = "Not fulfilled"

[[record]]
sequence_data = "ATATGTTC"
category = "Fulfilled"

[[record]]
sequence_data = "ATAATTTC"
category = "Not fulfilled"

[[record]]
sequence_data = "ACGCAAAC"
category = "Fulfilled"

[[record]]
sequence_data = "AACTAGCT"
category = "Not fulfilled"

[[record]]
sequence_data = "ATAATTTG"
category = "Fulfilled"

[[record]]
sequence_data = "TTACTAAA"
category = "Not fulfilled"

[[record]]
sequence_data = "CTATGTTA"
category = "Fulfilled"

[[record]]
sequence_data = "ATAATTCA"
category = "Fulfilled"

[[record]]
sequence_data = "CTATGTAA"
category = "Fulfilled"

[[record]]
sequence_data = "ATACTAAT"
category = "Not fulfilled"

[[record]]
sequence_data = "ATATGTAA"
category = "Fulfilled"

[[record]]
sequence_data = "ATTCACCC"
category = "Fulfilled"

[[record]]
sequence_data = "ATACTAAA"
category = "Not fulfilled"

[[record]]
sequence_data = "AACTAGCG"
category = "Fulfilled"

[[record]]
sequence_data = "GTAATTGA"
category = "Fulfilled"

[[record]]
sequence_data = "ATAACTTG"
category = "Fulfilled"

[[record]]
sequence_data = "AAATTAAA"
category = "Fulfilled"

[[record]]
sequence_data = "AAGTAGAT"
category = "Not fulfilled"

[[record]]
sequence_data = "AGCAGAGA"
category = "Fulfilled"

[[record]]
sequence_data = "CTATGTAC"
category = "Fulfilled"

[[record]]
sequence_data = "CAGTGTAA"
category = "Fulfilled"

[[record]]
sequence_data = "ATACTAAC"
category = "Fulfilled"

[[record]]
sequence_data = "GTAATTTA"
category = "Not fulfilled"

[[record]]
sequence_data = "GCAATTTA"
category = "Fulfilled"

[[record]]
sequence_data = "GATAGCAA"
category = "Fulfilled"

[[record]]
sequence_data = "GGCTAGTA"
category = "Fulfilled"

[[record]]
sequence_data = "ATATGTAG"
category = "Not fulfilled"

[[record]]
sequence_data = "ATGCAAAA"
category = "Fulfilled"

[[record]]
sequence_data = "CTACTAAA"
category = "Not fulfilled"

[[record]]
sequence_data = "ATATGTTA"
category = "Not fulfilled"

[[record]]
sequence_data = "GCATGGAA"
category = "Fulfilled"

[[record]]
sequence_data = "AGAGTGGA"
category = "Fulfilled"

[[record]]
sequence_data = "CTACTAAC"
category = "Not fulfilled"

[[record]]
sequence_data = "AGGTAGAT"
category = "Not fulfilled"

